# Tested on: clinical S. aureus isolate BF3
# Assay comment: Broth microdilution MIC, clinical S. aureus isolate BF3
# Format: cell-based
# Condition description: Staphylococcus aureus; BF3; read-out: MIC
MIC: recorded values
Respond with the bare value in µg/mL.

Example molecules with recorded MIC:
CC(C)c1onc(-c2c(Cl)cccc2Cl)c1COc1ccc(C=Cc2cccc(C(=O)O)c2)c(Cl)c1 [GW4064] : 8
CCCc1c(-c2ccc(O)cc2)nn(-c2ccc(O)cc2)c1-c1ccc(O)cc1 [PPT] : 8
Cc1cc(I)ccc1Nc1c(C(=O)NOCC2CC2)cc(F)c(F)c1F [PD198306] : 2

Now look at this one.
[Q] What measured MIC goes with CC(C)[C@H]1c2ccc(F)cc2CC[C@@]1(CCN(C)CCCc1nc2ccccc2[nH]1)OC(=O)C1CC1.Cl.Cl [NNC] ?
[A] 4

Data provenance is paper PMC7459823.
